Measured normalized growth values are reported for all entries that follow.
- test_name: chemical genetic growth profiling, strain panel (AID 1159580);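 note: tested at 20 µM; growth read once vehicle control cultures reached saturation at 30 °C; 1 = growth at the plate median or of vehicle wells; lower values mean less growth of the strain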
- test_conditions: S. cerevisiae deletion strains, growth OD, locus YDR363W, strain ESC2, active compounds read low
Hit rate of the full screen: of about 5,500 compounds, about 2,000 (36%) were called active. Inconclusive results (about 18%) are left out. The list shows a part of the results.

COc1ccccc1N1CCN(CCN(C(=O)C2CCCCC2)c2ccccn2)CC1 ... 1.01 (inactive)
Cc1ccc(OCC(O)C(C)NC(C)C)c2c1CCC2 (configuration not stated) ... 0.961 (inactive)
CCCOC(=O)c1c(-c2ccccc2)nc(CC)c(C(=O)SCC)c1CCC ... 0.982 (inactive)
O=C(O)CN(CCOCCOCCN(CC(=O)O)CC(=O)O)CC(=O)O ... 1 (inactive)
CCN(CC)C(=O)N[C@@H]1C[C@@H]2c3cccc4[nH]cc(c34)C[C@H]2N(C)C1 ... 1.01 (inactive)
COc1cc(C(=O)OCCCN2CCCN(CCCOC(=O)c3cc(OC)c(OC)c(OC)c3)CC2)cc(OC)c1OC ... 1.03 (inactive)
Cc1cc(N)c2ccccc2[n+]1CCCCCCCCCCCCCC[n+]1c(C)cc(N)c2ccccc21 ... 0.0835 (active)
CCCN(CC1CC1)c1nc(C)nc(Nc2c(Cl)cc(Cl)cc2Cl)c1Cl ... 0.999 (inactive)
CN[C@@H]1C[C@@H](c2ccc(Cl)c(Cl)c2)c2ccccc21 ... 0.865 (active)
O=C(NCCNCC(O)COc1ccc(O)cc1)N1CCOCC1 (configuration not stated) ... 1.01 (inactive)

Endpoint output: normalized growth of CC(=O)O[C@]1(C(C)=O)CC[C@H]2[C@@H]3C=C(Cl)C4=CC(=O)[C@@H]5C[C@@H]5[C@]4(C)[C@H]3CC[C@@]21C . Value? 0.976 (inactive)

Now the compound O=C(O)CCC(=O)N1CCCC1C(=O)O (configuration not stated) 1.02 (inactive)

Further, for O=C(O)CCc1nc(-c2ccccc2)c(-c2ccccc2)o1 ? 0.979 (inactive)

Another compound: CN1CCCC1c1cccnc1 (configuration not stated) 1.02 (inactive)

Then Cc1c(OCC(F)(F)F)ccnc1CS(=O)c1nc2ccccc2[nH]1 (configuration not stated) ? 0.933 (inactive)

* * *

- test_name: chemical genetic growth profiling, strain panel (AID 1159580);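 note: tested at 20 µM; growth read once vehicle control cultures reached saturation at 30 °C; 1 = growth at the plate median or of vehicle wells; lower values mean less growth of the strain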
- test_conditions: S. cerevisiae deletion strains, growth OD, locus YFR028C, strain CDC14
Screen size: about 5,500 compounds; about 2,000 (36%) were called active. Roughly 18% stayed inconclusive and do not appear here. Cut-off read from the data, not from the text of the source: active = normalized growth mostly below about 0.91 (no sharp cut-off); inconclusive = no clear call, values can overlap the other calls; inactive = mostly above about 0.92. Some of the results follow.
Permitted responses: TRUE for active, FALSE for inactive

# example entries with known answers
O=C(OCc1ccccc1Br)c1cc([N+](=O)[O-])cc([N+](=O)[O-])c1 ... FALSE
O=C1/C(=C/c2c[nH]c3ccccc23)CSc2ccccc21 ... FALSE
O=S(=O)(c1cc(Cl)ccc1Cl)N1CCc2ccccc2C1 ... FALSE
O=C(NC(=S)NNc1ncc(C(F)(F)F)cc1Cl)c1cccs1 ... TRUE
COc1ccc(N=C2SCC(c3ccc(C)cc3)=NN2CCO)cc1 ... FALSE
ONC(=Nc1ccccc1Cl)c1ccccc1Cl ... FALSE

Let's switch to this molecule now.
Hi, do you know how Cc1ccc(Sc2ncccc2NS(=O)(=O)c2ccc(Cl)cc2)cc1 came out in this test? FALSE
